// data source = patent US12458618B2

target: TRPV6 (Homo sapiens)
Sequence (Q9H1D0 whole entry): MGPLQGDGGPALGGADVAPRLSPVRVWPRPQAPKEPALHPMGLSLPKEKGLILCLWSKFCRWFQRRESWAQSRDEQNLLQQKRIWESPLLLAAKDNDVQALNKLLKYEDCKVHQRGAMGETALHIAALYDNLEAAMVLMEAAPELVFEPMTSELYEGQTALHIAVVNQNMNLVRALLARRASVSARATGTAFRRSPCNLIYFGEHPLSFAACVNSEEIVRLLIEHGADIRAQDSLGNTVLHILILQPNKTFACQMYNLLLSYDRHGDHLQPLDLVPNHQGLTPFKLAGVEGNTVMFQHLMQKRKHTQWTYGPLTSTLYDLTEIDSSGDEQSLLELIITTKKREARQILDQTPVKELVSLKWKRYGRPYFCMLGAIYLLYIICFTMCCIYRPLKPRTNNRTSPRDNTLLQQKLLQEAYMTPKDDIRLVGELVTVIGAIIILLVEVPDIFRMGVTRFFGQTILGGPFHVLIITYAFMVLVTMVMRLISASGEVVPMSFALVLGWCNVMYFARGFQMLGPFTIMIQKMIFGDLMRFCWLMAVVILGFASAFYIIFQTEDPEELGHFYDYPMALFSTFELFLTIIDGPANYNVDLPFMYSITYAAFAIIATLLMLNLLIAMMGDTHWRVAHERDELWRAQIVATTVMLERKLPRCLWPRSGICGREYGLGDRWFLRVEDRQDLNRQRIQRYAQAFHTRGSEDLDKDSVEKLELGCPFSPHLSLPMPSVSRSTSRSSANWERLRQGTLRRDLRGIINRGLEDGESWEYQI
assay.procedure: Equilibrium dissociation constant (Kd) in an LNCaP model
Assay type: binding
Set-up: endogenous in cells; host or cells: LNCaP
Where no end group is shown, it is not given here.

>  <primary.sequence>
HPSKVDLPR [SorC9, HPSKVDLPR]

>  <Kd>
~90 nM

$$$$
